Molecular target: acetylcholinesterase (AChE) (Homo sapiens, UniProt P22303)
Construct: purchased Sigma Chemical Co. (Poznań, Poland)
Sequence (P22303 32-614, species assumed): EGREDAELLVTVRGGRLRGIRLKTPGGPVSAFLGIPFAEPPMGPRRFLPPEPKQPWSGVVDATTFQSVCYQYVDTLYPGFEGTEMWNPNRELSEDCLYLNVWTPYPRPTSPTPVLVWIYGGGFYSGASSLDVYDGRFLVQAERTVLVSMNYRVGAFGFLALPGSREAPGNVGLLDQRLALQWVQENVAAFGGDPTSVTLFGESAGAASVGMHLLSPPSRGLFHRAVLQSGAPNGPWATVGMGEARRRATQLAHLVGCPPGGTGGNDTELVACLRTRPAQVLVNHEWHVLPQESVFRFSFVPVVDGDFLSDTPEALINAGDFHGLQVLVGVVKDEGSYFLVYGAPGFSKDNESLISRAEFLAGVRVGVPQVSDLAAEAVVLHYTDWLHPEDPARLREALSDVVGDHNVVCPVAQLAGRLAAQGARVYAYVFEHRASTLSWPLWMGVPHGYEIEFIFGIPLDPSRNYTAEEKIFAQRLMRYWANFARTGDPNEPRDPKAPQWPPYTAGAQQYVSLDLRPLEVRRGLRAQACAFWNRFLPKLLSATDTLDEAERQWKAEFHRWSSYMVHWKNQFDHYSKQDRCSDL
Assay: Acetylcholinesterase inhibitory activity
Assay type: biochemical
Settings: linear regression; read-out: IC50 for AChE inhibition
pIC50: −log10 of the molar value.
measured_parameter: pIC50

| compound | result_number |
| --- | --- |
| O=c1cc(-c2ccc(O)c(O)c2)oc2c([C@@H]3O[C@H](CO)[C@@H](O)[C@H](O)[C@H]3O)c(O)cc(O)c12 [Orientin (OR)] | 6.06 |

* * *

Anodic Peak Potential Epa (mV) Epa1 listing for selected compounds.
Experiment: Differential pulse voltammetry: anodic peak potentials and antioxidant activity
Format: physicochemical
Details: DPV, 0.25 mM standard solutions, acetate-acetic buffer pH 5.0 in 80% methanol, glassy carbon electrode, vs. Ag/AgCl
Marks after values point to notes of the source that are not given here.

| compound | Anodic Peak Potential Epa (mV) Epa1 |
| --- | --- |
| O=c1cc(-c2ccc(O)cc2)oc2c([C@@H]3O[C@H](CO)[C@@H](O)[C@H](O)[C@H]3O)c(O)cc(O)c12 [Vitexin (VT), 4′,5,7-trihydroxyflavone-8-glucoside] | 925 ± 8 ^a mV |
| O=c1cc(-c2ccc(O)c(O)c2)oc2cc(O)c([C@@H]3O[C@H](CO)[C@@H](O)[C@H](O)[C@H]3O)c(O)c12 | 336 ± 5 ^b mV |
| O=c1cc(-c2ccc(O)cc2)oc2cc(O)c([C@@H]3O[C@H](CO)[C@@H](O)[C@H](O)[C@H]3O)c(O)c12 [Isovitexin (iVT), 4′,5,7-trihydroxyflavone-6-glucoside] | 926 ± 8 ^a mV |
| O=c1cc(-c2ccc(O)c(O)c2)oc2c([C@@H]3O[C@H](CO)[C@@H](O)[C@H](O)[C@H]3O)c(O)cc(O)c12 | 345 ± 6 ^b mV |
| O=c1c(O)c(-c2ccc(O)c(O)c2)oc2cc(O)cc(O)c12 [Quercetin (Q), 3,3′,4′,5,7-pentahydroxyflavone, reference compound] | 255 ± 7 ^c mV |

All values here come from paper PMC12564449.
